Kindly state OD450 for each of the entries shown.
Target under test: T1, human MSLN-R3-3 polypeptide (human)
T1 construct: also called human MSLN-R3-3 protein; hMSLN-R3-3
Measurement description: ELISA, coated antigen; no antibody (blank, column 'none')
Answers are plain numbers, in OD450.

Worked cases, answers included:
Binder	OD450 [OD450]
S009-F3.16.1 (antibody, human IgG1, kappa, V domains shown, Human-murine chimeric antibody, human IgG1/kappa constant regions) VH: EVKFEESGGGLVQPGGSMKLSCVASGFTFSNYWMNWVRQSPEKGLEWVAQIRLKSDNYATHYAESVKGRFSISRDDSKSSVYLQMNNLRAEDTGIYYCSVGTGGYWGQGTTLTVSS VL: DIVLTQSPASLALSPGKRATISCRASESVSIIGTDVIHWFQQKPGQPPKLLIYHASNLETGVPARFSGSGSRTDFTLTIDPVEEDDVAIYYCLQSRKIPWTFGGGTKLEIKR	0.08
S009-F3.80.22 (antibody, human IgG1, kappa, V domains shown, Human-murine chimeric antibody, human IgG1/kappa constant regions) VH: QVQLQQSGAELVRPGASVTLSCKASGYTFTDYEIHWVKQTPVHGLEWIGAFDPEIGGSAYNQKFKDRATLTADKSSSTAYMELHSLTAEDSAVYYCTDYYGSSSGYFDVWGTGTTVTVSS VL: DVVMTQTPLSLPVSLGDQASISCRSSQSLEHNNGNTYLHWFLHKPGQSPKLLIYKVSNRFSGVPDRFSGSGSGTDFTLKISRVEAEDLGVYFCSQSTHVPFTFGSGTKLEIKR	0.08
S009-F3.38.10 (antibody, human IgG1, kappa, V domains shown, Human-murine chimeric antibody, human IgG1/kappa constant regions) VH: EVQLQQSGPVLVKPGASVKMSCEASGYIFTDYYMNWVKKSHGKSLEWIGVINPKNGVISHNQKFKGKATLTVDKSSNTAYMELSSLTSEDSAVYYCANYGSRFYAMDYWGQGTSVTVSS VL: DVVMTQTPLSLPVSLGDQASISCRSSQSLIHSDGNTYLQWYLQKSGQSPKLLIYKVSNRFSGVPDRFSGSGSGTDFTLKISRVETEDLGVYFCSQTTHVPFTFGSGTKLEIKR	0.07
S009-F3.74.20 (antibody, human IgG1, kappa, V domains shown, Human-murine chimeric antibody, human IgG1/kappa constant regions) VH: RVQLQQSGAELVRPGASVTLSCKASGYTFTDSEMHWVKQTPVHGLEWIGAIDPEIDGTAYNQNFRDKAILTADKSSSTAYMELRSLTSEDSAVYYCTTYFGSGYGYFDVWGTGTTVTVSS VL: DVVMTQTPLSLSVSLGDQASISCRSSQSLVYSNGNTYLHWFLQKPGQSPKLLIYKVSNRFSGVPDRFSGSGSGTDFTLKINRVEAEDLGVYFCSQSTHIPFTFGAGTKLELKR	0.07
S009-F3.7.3 (antibody, human IgG1, kappa, V domains shown, Human-murine chimeric antibody: murine VH/VL on human IgG1 heavy chain constant region and human kappa constant region) VH: EVNFEESGGGLVQPGGSMKLSCVASGFTFSNYWMNWVRQSPEKGLEWVAQIRLKSDNYATHYAESVKGRFTISRDDFKSSVYLQMNNLRAEDTGIYYCTVGTGGYWGQGTTLTVSS VL: DIVLTQSPASLAMSLGKRATISCRASESVSIVGTNVIHWFQQKPGQPPKLLIYHASNLETGVPARFSGSGSGTDFTLTIDPVEEDDVAIYHCLQSRKIPWTFGGGTKLEIKR	0.08

Consider the additional binder presented here.
In: Supply measured OD450 of S009-F3.45.21 (antibody, human IgG1, kappa, V domains shown, Human-murine chimeric antibody, human IgG1/kappa constant regions) VH: DVQLQESGPGLVKPSQSLSLTCSVTGDSITSGYYWNWIRQFPGNKLEWMGFIRFDGTNNYNPSLKNRISITRDTSKNQFFLKLNSVTTEDTATYYCAREGSYAPAWFAYWGQGTLVTVSA VL: QIVLTQSPAIMSASPGEKVTMTCSASSSLSYMYWYQQKPGSSPRLLIYDTSNLASGVPVRFSGSGSGTSYSLTISRMEAEDAATYYCQQWSSYPPTFGGGTKLEIKR in your reply.
Out: 0.07
